All values here come from patent US9510598B2.

# ASSAY_CONDITIONS: Table 2, formula (II); method [a]: pH 2.7, 0.1% formic acid in water / acetonitrile gradient
RECORDED_ENDPOINT: Log P

{"COMPOUND": "COC(=O)C12CCCC1C(c1ccc3ncc(Br)cc3c1)=NO2 (stereo not drawn)", "Log P": "3.23[a]"}
{"COMPOUND": "COC(=O)C1(C(C)=O)CC(c2ccc3ncc(Br)cc3c2)=NO1 (stereo not drawn)", "Log P": "2.94[a]"}
{"COMPOUND": "CCOC(=O)C1(OCC)CC(c2ccc3ncc(Br)cc3c2)=NO1 (stereo not drawn)", "Log P": "2.53[a]"}
{"COMPOUND": "C=C(C)C1(C(=O)O)CC(c2ccc3ncc(Br)cc3c2)=NO1 (stereo not drawn)", "Log P": "2.52[a]"}
{"COMPOUND": "C#Cc1cnc2c(C)cc(C3=NOC(OC)(C(=O)O)C3)cc2c1 (stereo not drawn)", "Log P": "2.07[a]"}

Need Log P of CCOC(=O)C1(CC)CC(c2ccc3ncc(C#C[Si](C)(C)C)cc3c2)=NO1 (stereo not drawn) , thanks. 5.19[a]

Same question for C#Cc1cnc2ccc(C3=NOC(C)(C(=O)OC)C3)cc2c1 (stereo not drawn) please. 2.35[a]

Same question for COC(=O)C1(C)CC(c2cc3cc(Br)cnc3c(F)c2F)=NO1 (stereo not drawn) please. 3.06[a]

Same question for COC(=O)C1(C(C)O)CC(c2ccc3ncc(Br)cc3c2)=NO1 (mixture of isomers) please. 2.18[a]

====

Quick reference: % of efficacy (protection) of the listed items.
# System: Septoria tritici
# ASSAY_COMMENT: In vivo preventive test on Septoria tritici (leaf spot on wheat)
# ASSAY_CONDITIONS: 500 ppm; wheat plants sprayed 24 hours before contamination; grading 21 to 28 days after contamination vs control plants
API: value field is a number in %; no unit string.

{"MOLECULE": "CC(NC(=O)C1(C)CC(c2ccc3ncc(Br)cc3c2)=NO1)C1CC1 (stereo not drawn)", "UNIT_NAME": "%", "% of efficacy (protection)": 100}
{"MOLECULE": "C#Cc1cnc2ccc(C3=NOC(C(=O)NCC4COC(C)(C)O4)(C(F)F)C3)cc2c1 (stereo not drawn)", "UNIT_NAME": "%", "% of efficacy (protection)": 97}
{"MOLECULE": "CCn1cc(CNC(=O)C2(CC)CC(c3ccc4ncc(Br)cc4c3)=NO2)c(C)n1 (stereo not drawn)", "UNIT_NAME": "%", "% of efficacy (protection)": 100}

Record lookup: for Septoria tritici, what % of efficacy (protection) belongs to C#Cc1cnc2c(C)cc(C3=NOC(C)(C(=O)NCCCOCC)C3)cc2c1 (racemic) ? 83

Same question for C#CCCNC(=O)C1(C)CC(c2ccc3ncc(C#C)cc3c2)=NO1 (racemic) please. 100

Same question for CCn1ncc(CNC(=O)C2(C)CC(c3ccc4ncc(Br)cc4c3)=NO2)c1C (stereo not drawn) please. 75

Same question for COC1(C(=O)NC2CCC2)CC(c2ccc3ncc(I)cc3c2)=NO1 (stereo not drawn) please. 100

Same question for CC1(C)OCC(CNC(=O)C2(C)CC(c3ccc4ncc(Br)cc4c3)=NO2)O1 (stereo not drawn) please. 100

====

# Format: physicochemical
# ASSAY_CONDITIONS: HPLC on reversed phase columns, method [a]: pH 2.7, 0.1% formic acid in water and acetonitrile, linear gradient 10% to 95% acetonitrile
Quick reference: log P of the listed items.

Some molecules with recorded log P:
{"MOLECULE": "CC1(C(=O)NC2CC(F)(F)C2)CC(c2ccc3ncc(Br)cc3c2)=NO1 (stereo not shown) [compound 755]", "log P": "2.86[a]"}
{"MOLECULE": "C#Cc1cnc2ccc(C3=NOC(C)(C(=O)NCc4ccnc(SC)c4)C3)cc2c1 (stereo not shown) [compound 798]", "log P": "2.32[a]"}
{"MOLECULE": "C#Cc1cnc2ccc(C3=NOC(C)(C(=O)NCc4ccnc(F)c4)C3)cc2c1 (stereo not shown) [compound 802]", "log P": "2.23[a]"}

# next molecule below
Need log P of C#Cc1cnc2ccc(C3=NOC(C)(C(=O)NCc4cncc(OC)c4)C3)cc2c1 (stereo not shown) [compound 696] , thanks. 1.59[a]
